Target: T1, STXBP5 peptide complexed with HLA-A*02:01 on T2 cells (human)
T1 construct: whole, on cells
Assay: flow cytometry, peptide-loaded T2 cells;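 further: binding of single-chain Fv antibody constructs, raised in XenoMouse, to peptide-pulsed T2 cells measured by flow cytometry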
ASSAY_READOUT: Signal/background
Lab note: write the figure by itself, no unit.

Below, each entry is followed by its recorded Signal/background result.
18181-A6 (scFv, scFv in bacterial lysate, detected with anti-Flag M2) scFv: EVQLLESGGGLVQPGGSLRLSCAASGFTFSNAWMSWVRQAPGKGLEWVGRIKGNTYGGTTDYAAPVKGRFTISRDDSKNTLYLQMNSLKTEDTAVYYCTTPSYSGSYYNYFSVMDVWGQGTTVTVSSGGGGSGGGGSGGGGSELVMTQSPSSLSASVGDRVTITCRASQSISSYLNWYQQKPGRAPKLLIFAASSLQGGVPSRFSGSGSGTDFTLTISSLQPEDFATYYCQQTYSMPFTFGPGTKLEIK    1
18179-G12 (scFv, scFv in bacterial lysate, detected with anti-Flag M2) scFv: EVQLLESGAEVKKPGASVKVSCKASGYTFTRNGLSWVRQAPGQGLEWMGWISGYNGDTNYAQKLQGRGTMTTDTSTSTAYMELRSLRSDDTAVYYCARGRATFDYWGQGTLVTVSSGGGGSGGGGSGGGGSELVMTQSPSSLSASVGDRVTITCRASQGISNYLAWYQQKPGKVPKLLISAASTLQSGVPSRFSGSGSGTDFTLTISSLQPEDVATYYCQKYNSAPFTFGPGTKLEIK    0.9
18182-H9 (scFv, scFv in bacterial lysate, detected with anti-Flag M2) scFv: EVQLLESGGGLVQPGGSLRLSCAASGFTFSSHAMSWVRQAPGKGLEWVSAISGSGGGTYYADSVKARFTISRDNSKNTLYLQMNSLRAEDTAVYYCATGKGVHLGFDYWGQGTLVTVSSGGGGSGGGGSGGGGSELVLTQPPSVSVAPGQTARITCGGNNIGSKSVHWHQQKPGQAPVLVVYDDNDRPSGIPERFSGSNSGNTATLTISRVEAGDEADFYCQVWDSSSDHVVFGGGTKLTVL    1.1
18182-B12 (scFv, scFv in bacterial lysate, detected with anti-Flag M2) scFv: EVQLLESGGGLVQPGGSLRLSCAASGFTFSSYAMSWVRQAPGKGLEWVSAISGSGGGTYYADSVKGRFTISRDNSKNTLYLQMSSLRAEDTAVYYCATGKGVHLGFDYWGQGTLVTVSSGGGGSGGGGSGGGGSELVLTQPPSVSVAPGQTARITCGGNNIGSKSVHWHQQKPGQAPVLVVYDDNDRPSGIPERFSGSNSGNTATLTISRVEAGDEADYYCQVWDYSSDHVVFGGGTKLTVL    0.9
18182-E6 (scFv, scFv in bacterial lysate, detected with anti-Flag M2) scFv: EVQLLESGGGLVQPGGSLRLSCAASGFTFSSYAMSWVRQAPGKGLEWVSAISGSGGGTYYADSVKGRFTISRDNSKNTLYLQMNSLRAEDTAVYYCATGKGVHLNFDYWGQGTLVTVSSGGGGSGGGGSGGGGSELVLTQPSSVSVAPGQTARITCGGNNIGSKSVHWYQQKPGQAPVLVVYDDNDRPSGIPERFSGSNFGNTATLIISRVAAGDEADYYCQVWDSSSDHVVFGGGTKLTVL    0.9
18181-B8 (scFv, scFv in bacterial lysate, detected with anti-Flag M2) scFv: EVQLLESGPGLVKPSQTLSLTCTVSGGSISSGGYYWSWIRQHPGKGLEWIGYISHSGSTYYNPSLKSRVTISVDTSKNQFSLNLTSVTAADTAVYYCAREKMWFGVLNYYYGMDVWGQGTTVTVSSGGGGSGGGGSGGGGSELVMTQTPLSLPVTPGEPASISCRSSQSLLHRNGYNYLDWYLQKPGQSPQLLIYLGSNRASGVPDRFIGSGSGTDFTLEISRVEAEDVGVYYCMQALQTPSFGQGTKVEIK    0.9

Signal/background for 18089-C9 (scFv, scFv in bacterial lysate, detected with anti-Flag M2) scFv: EVQLLESGPTLVKPTQTLTLTCTFSGFSFTTHKMGVDWIRQPPGKALEWLALIYWNDDKRYSPSLQSRLTITKDTSKNQVVLTMTNMDPVDTATYYCAYRRYNWNYENWFDPWGQGTLVTVSSGGGGSGGGGSGGGGSELQMTQSPSSLSASVGDRVTITCRASQFISSYLNWYQQKPGKAPKLLIYAASSLQSGVPSRFSGRGSGTDFTLTISSLQPEDFATYYCQQSYSTPFTFGPGTKVEIK ? 1

Signal/background for 18182-G6 (scFv, scFv in bacterial lysate, detected with anti-Flag M2) scFv: EVQLLESGGGLVQPGGSLRLSCAASGFTFSSYAMSWVRQAPGKGLEWVSAISGSGGGTYYADSVKGRFTISRDNSKNTLYLQMNSLRAEDTAAYYCVTGKGVHLGFDYWGQGTLVTVSSGGGGSGGGGSGGGGSELVLTQPPSVSVAPGQTARITCGGNNIGSKSVHWHQQKPGQSPVLVIYDDNDRPSGIPERFSGFNSGNTATLTISRVEAGDEADYYCQVWDSSSDHVVFGGGTKLTVL ? 1
